Data provenance is patent US20090232838A1.

Test system: hMC5-R (Homo sapiens)
Construct: expressed in transfected cells; host or cells: CHO-K1
Sequence (P33032 whole entry): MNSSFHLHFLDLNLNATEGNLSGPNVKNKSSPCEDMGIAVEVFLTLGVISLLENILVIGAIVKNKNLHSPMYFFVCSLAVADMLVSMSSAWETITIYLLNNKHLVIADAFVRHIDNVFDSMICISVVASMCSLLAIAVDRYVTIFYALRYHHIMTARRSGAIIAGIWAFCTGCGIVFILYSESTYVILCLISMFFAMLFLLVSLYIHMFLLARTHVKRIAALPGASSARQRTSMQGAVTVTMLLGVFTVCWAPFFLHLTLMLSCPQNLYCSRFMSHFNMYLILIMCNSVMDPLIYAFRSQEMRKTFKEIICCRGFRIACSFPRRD
Assay details: cyclic AMP bioassay, hMC5-R
Type: cell-based
Where a SMILES comes first, the peptide text is derived from it. Bridges are numbered along the chain shown (N, C = ends). [ ]: non-standard residue; d: D form. 2Nal = N[C@@H](Cc1ccc2ccccc2c1)C(=O)O; d2Nal = N[C@H](Cc1ccc2ccccc2c1)C(=O)O

Compound	Unit symbol	EC50
CCCC[C@H](NC(C)=O)C(=O)N[C@H]1CSSC[C@@H](C(=O)NCCC(=O)N[C@@H](CCCNC(=N)N)C(=O)N[C@@H](CCCNC(=N)N)C(=O)N[C@@H](CCCCN)C(=O)N[C@@H](CCCNC(=N)N)C(=O)N[C@@H](CCCNC(=N)N)C(=O)N[C@@H](CCC(N)=O)C(=O)N[C@@H](CCCNC(=N)N)C(=O)N[C@@H](CCCNC(=N)N)C(=O)N[C@@H](CCCNC(=N)N)C(N)=O)NC(=O)[C@H](Cc2c[nH]c3ccccc23)NC(=O)[C@H](CCCNC(=N)N)NC(=O)[C@@H](Cc2ccccc2)NC(=O)[C@H](Cc2c[nH]cn2)NC(=O)[C@@H](C)NC1=O	nM	165
CC(=O)N[C@H]1CSSC[C@@H](C(=O)N2CCC[C@H]2C(=O)N2CCC[C@H]2C(=O)N[C@@H](CCCCN)C(=O)N[C@@H](CC(=O)O)C(N)=O)NC(=O)[C@H](C)NC(=O)[C@H](Cc2ccc3ccccc3c2)NC(=O)[C@H](CCCNC(=N)N)NC(=O)[C@@H](Cc2ccc3ccccc3c2)NC(=O)[C@H](Cc2c[nH]cn2)NC(=O)[C@H](CCC(=O)O)NC1=O (Ac-CEH[d2Nal]R[2Nal]ACPPKD-NH2; disulfide 1-8)	nM	66.9
